Provenance of the data: patent US11180483B2

experimental-endpoint: melting point

Item under review: CCc1nc2ccc(F)cc2n1-c1nc(N)cc(Nc2ccc(C(F)(F)F)cc2)n1 . Reported melting point? 201 to 203 °C

Next entry: CCc1nn2ccc(F)cc2c1-c1nc(N)c(F)c(Nc2ccc(OC(F)F)c(F)c2)n1 150 to 152 °C

* * *

experimental-endpoint: melting point

GET /values?readout=melting point&item= COCc1nc2ccccc2n1-c1nc(N)cc(Nc2ccc(C(F)(F)F)cc2)n1 212 to 213 °C

Request: Cc1nc2ncc(F)cn2c1-c1nc(N)cc(Nc2ccc(C(F)(F)F)cc2)n1 256 to 258 °C

Now the molecule Nc1cc(Nc2ccc(C(F)(F)F)cc2)nc(-n2c(C(F)F)nc3ccccc32)n1 187 to 188 °C

Follow-up entry: Cc1cn2c(-c3nc(N)c(F)c(Nc4ccc(OC(F)F)cc4)n3)c(C)nc2c(C)n1 141 to 143 °C

Let us now turn to Nc1cc(Nc2ccc(OC(F)(F)F)cc2)nc(-c2c(C(F)(F)F)nc3ccccn23)n1 199 to 202 °C

And what about the molecule Cc1cn2c(-c3nc(N)c(F)c(Nc4ccc(OC(F)F)c(F)c4)n3)c(C)nc2c(C)n1 ? 140 to 141 °C

# repeat for Cc1ccc(Nc2nc(-c3c(C)nc4ccc(F)cn34)nc(N)c2F)cc1 210 to 212 °C

Please answer likewise for Cc1cn2c(-c3nc(N)c(F)c(Nc4ccc(C(F)(F)F)cc4)n3)c(C)nc2c(C)n1 166 to 168 °C

Similarly, Cc1nn(C)c(C)c1-c1nc(N)cc(Nc2ccc(C(F)(F)F)cc2)n1 ? 270 to 271 °C

Consider next the molecule CCc1nn2ccc(F)cc2c1-c1nc(N)c(F)c(Nc2ccc(OC(F)F)cc2)n1 in the same way. 103 to 105 °C

Another: COc1ccc(Nc2cc(N)nc(-n3c(C)nc4ccccc43)n2)cn1 118 to 119 °C

Now consider CC(C)c1nc2ccccc2n1-c1nc(N)cc(Nc2ccc(C(F)(F)F)cc2)n1 and answer again. 216 to 218 °C

Would you mind doing CCc1nc2ccc(F)cc2n1-c1nc(N)cc(Nc2ccc(OC(F)F)c(F)c2)n1 as well? 156 to 158 °C

Field entry: Cc1nc2ccccc2n1-c1nc(N)cc(Nc2ccc3c(c2)OCO3)n1 166 to 167 °C

Now consider Cc1nc2ccc(F)cc2n1-c1nc(N)cc(Nc2ccc(OC(F)F)c(F)c2)n1 . 182 to 183 °C

Would you mind doing COc1ccc(Nc2nc(-c3c(C)nc4ccc(F)cn34)nc(N)c2F)cc1 as well? 204 to 206 °C
